system: AsPC-1 cells; test: AsPC-1 cell proliferation assay (CellTiter Glo); format: cell-based; conditions: Homo sapiens, ASPC1, 144 h, 6 days
reportedMetric: IC50

Task: Value lookup for IC50; key = CO[C@@H](C)COc1nc(N2C[C@@H]3C[C@H]2CN3)c2cc(C3CC3)c(-c3c(C)c(F)cc4[nH]ncc34)c(OCc3ccc(-c4cn([C@H](C(=O)N5C[C@H](O)C[C@H]5C(=O)N[C@H](C#Cc5ccccc5Cl)CO)C(C)C)nn4)cc3)c2n1 [Example 64]
Output: 10 to 100 nM

Task: Value lookup for IC50; key = CCn1nccc1-c1ccc([C@@H](NC(=O)[C@@H]2C[C@@H](O)CN2C(=O)[C@H](C(C)C)n2cc(-c3ccc(COc4c(-c5c(C)c(F)cc6[nH]ncc56)c(C5CC5)cc5c(N(C)[C@H]6CCNC6)nc(O[C@H]6C[C@H](OC)C6)nc45)cc3)nn2)[C@H](C)O)cc1 [Example 170]
Output: < 10 nM
